Target: Fatty-acid amide hydrolase 1 (Homo sapiens, UniProt O00519)
Sequence (O00519 whole entry): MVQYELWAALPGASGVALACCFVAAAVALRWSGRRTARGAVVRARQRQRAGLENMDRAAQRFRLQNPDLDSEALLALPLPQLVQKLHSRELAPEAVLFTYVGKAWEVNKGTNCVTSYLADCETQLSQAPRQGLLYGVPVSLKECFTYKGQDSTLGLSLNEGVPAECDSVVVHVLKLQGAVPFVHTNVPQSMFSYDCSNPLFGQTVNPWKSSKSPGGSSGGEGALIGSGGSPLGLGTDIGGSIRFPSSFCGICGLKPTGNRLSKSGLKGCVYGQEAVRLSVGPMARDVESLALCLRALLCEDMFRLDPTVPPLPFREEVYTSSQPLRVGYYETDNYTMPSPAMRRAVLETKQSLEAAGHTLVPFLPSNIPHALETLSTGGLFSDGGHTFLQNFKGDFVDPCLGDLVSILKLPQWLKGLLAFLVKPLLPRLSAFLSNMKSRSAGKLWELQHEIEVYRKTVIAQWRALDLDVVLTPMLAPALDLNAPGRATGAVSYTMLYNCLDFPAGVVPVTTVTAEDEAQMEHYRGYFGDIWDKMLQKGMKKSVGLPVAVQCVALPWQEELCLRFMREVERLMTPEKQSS
Assay name: Inhibition of human recombinant FAAH after 15 mins
pIC50: −log10 of the molar value.
Overview of recorded pIC50 for various molecules
Quantity kind: pIC50

• CCCCSCC(=O)C(F)(F)F = < 4.40
• CCCC[S+]([O-])CC(=O)C(F)(F)F (stereo not drawn) = < 4.40
• CCCCCCS(=O)(=O)CC(=O)C(F)(F)F = < 4.40
• CCCCCCCCSCC(=O)C(F)(F)F = 6.52
• CCCCCCCCCCC(=O)C(F)(F)F = 5.74
• O=C(C(=O)c1ccccc1)c1ccccc1 [BENZIL] = < 4.40
• CCCCCC[S+]([O-])CC(=O)C(F)(F)F (stereo not drawn) = < 4.40
• CCCCCCCCCCCC[S+]([O-])CC(=O)C(F)(F)F (stereo not drawn) = 6.22

###

Target: Liver carboxylesterase (Sus scrofa, UniProt Q29550)
Sequence (Q29550 whole entry): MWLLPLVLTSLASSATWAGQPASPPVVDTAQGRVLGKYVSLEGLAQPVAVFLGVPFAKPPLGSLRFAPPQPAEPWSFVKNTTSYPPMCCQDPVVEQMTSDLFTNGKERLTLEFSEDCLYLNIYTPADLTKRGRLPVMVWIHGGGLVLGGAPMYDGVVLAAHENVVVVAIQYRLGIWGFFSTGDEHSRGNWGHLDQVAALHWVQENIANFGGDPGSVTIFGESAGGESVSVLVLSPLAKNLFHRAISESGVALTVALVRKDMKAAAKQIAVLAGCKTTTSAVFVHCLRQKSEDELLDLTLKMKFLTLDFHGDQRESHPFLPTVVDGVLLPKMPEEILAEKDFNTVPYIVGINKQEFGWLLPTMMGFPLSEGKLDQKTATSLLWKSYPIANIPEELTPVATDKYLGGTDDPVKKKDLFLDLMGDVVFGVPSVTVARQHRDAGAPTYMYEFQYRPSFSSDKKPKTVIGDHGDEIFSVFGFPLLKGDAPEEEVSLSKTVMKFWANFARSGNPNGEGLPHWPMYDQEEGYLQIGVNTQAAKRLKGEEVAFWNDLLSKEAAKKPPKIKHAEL
Assay name: Inhibition of pig liver carboxylesterase after 15 mins
Strictly below 30 nM in IC50: true (1). Otherwise: false (0).

- CCCCSCC(=O)C(F)(F)F: true (1)
- CCCCCC[S+]([O-])CC(=O)C(F)(F)F (configuration not stated): false (0)
- CCCC[S+]([O-])CC(=O)C(F)(F)F (configuration not stated): false (0)
- CCCCCCCCCCS(=O)(=O)CC(=O)C(F)(F)F: true (1)
- CCCCCCSCC(=O)C(F)(F)F: true (1)
- CCCCCCCCCCSCC(=O)C(F)(F)F: true (1)
- CCCCCCCCSCC(=O)C(F)(F)F: true (1)
